Experiment: Antiproliferative activity against human L02 cells assessed as reduction in cell viability incubated for 48 hrs by CCk-8 assay
Format: toxicity, cell-based
value.type: IC50 at 48 h

Here's what some known entries look like.
structure.smiles: C[C@H]1CCC/C=C/[C@@H]2C[C@H](O)C[C@H]2[C@H](OC(=O)c2ccccc2C(=O)OCCCCCCOc2ccc(-c3cc(=S)ss3)cc2)/C=C/C(=O)O1
result: > 80 µM
--
structure.smiles: C[C@H]1CCC/C=C/[C@@H]2C[C@H](OC(=O)CCCC(=O)OCCCCOc3ccc(-c4cc(=S)ss4)cc3)C[C@H]2[C@H](OC(=O)CCCC(=O)OCCCCOc2ccc(-c3cc(=S)ss3)cc2)/C=C/C(=O)O1
result: > 40 µM
--
structure.smiles: C[C@H]1CCC/C=C/[C@@H]2C[C@H](OC(=O)CCC(=O)Oc3ccc(-c4cc(=S)ss4)cc3)C[C@H]2[C@H](OC(=O)CCC(=O)Oc2ccc(-c3cc(=S)ss3)cc2)/C=C/C(=O)O1
result: > 40 µM
--
structure.smiles: C[C@H]1CCC/C=C/[C@@H]2C[C@H](OC(=O)CCCC(=O)Oc3ccc(-c4cc(=S)ss4)cc3)C[C@H]2[C@H](OC(=O)CCCC(=O)Oc2ccc(-c3cc(=S)ss3)cc2)/C=C/C(=O)O1
result: > 40 µM

Prompt: Looking for the measured IC50 at 48 h of C[C@H]1CCC/C=C/[C@@H]2C[C@H](OC(=O)c3ccccc3C(=O)OCCCCOc3ccc(-c4cc(=S)ss4)cc3)C[C@H]2[C@H](OC(=O)c2ccccc2C(=O)OCCCCOc2ccc(-c3cc(=S)ss3)cc2)/C=C/C(=O)O1 , can you help?
Completion: > 40 µM

Prompt: What do you get for C[C@H]1CCC/C=C/[C@@H]2C[C@H](OC(=O)CCC(=O)OCCCCCCOc3ccc(-c4cc(=S)ss4)cc3)C[C@H]2[C@H](OC(=O)CCC(=O)OCCCCCCOc2ccc(-c3cc(=S)ss3)cc2)/C=C/C(=O)O1 ?
Completion: > 40 µM

Prompt: What do we get for C[C@H]1CCC/C=C/[C@@H]2C[C@H](OC(=O)CCC(=O)OCCCCCCOc3ccc(-c4cc(=S)ss4)cc3)C[C@H]2[C@H](O)/C=C/C(=O)O1 ?
Completion: > 80 µM

Prompt: Similarly, C[C@H]1CCC/C=C/[C@@H]2C[C@H](OC(=O)CCC(=O)OCCOc3ccc(-c4cc(=S)ss4)cc3)C[C@H]2[C@H](OC(=O)CCC(=O)OCCOc2ccc(-c3cc(=S)ss3)cc2)/C=C/C(=O)O1 ?
Completion: > 40 µM

Prompt: Now the same for C[C@H]1CCC/C=C/[C@@H]2C[C@H](O)C[C@H]2[C@H](OC(=O)c2ccccc2C(=O)OCCOc2ccc(-c3cc(=S)ss3)cc2)/C=C/C(=O)O1
Completion: > 80 µM

Prompt: Now consider C[C@H]1CCC/C=C/[C@@H]2C[C@H](OC(=O)c3ccccc3C(=O)Oc3ccc(-c4cc(=S)ss4)cc3)C[C@H]2[C@H](OC(=O)c2ccccc2C(=O)Oc2ccc(-c3cc(=S)ss3)cc2)/C=C/C(=O)O1 .
Completion: > 40 µM

Prompt: Another compound: C[C@H]1CCC/C=C/[C@@H]2C[C@H](OC(=O)c3ccccc3C(=O)OCCCCCCOc3ccc(-c4cc(=S)ss4)cc3)C[C@H]2[C@H](OC(=O)c2ccccc2C(=O)OCCCCCCOc2ccc(-c3cc(=S)ss3)cc2)/C=C/C(=O)O1
Completion: > 40 µM

Prompt: Quick one: C[C@H]1CCC/C=C/[C@@H]2C[C@H](OC(=O)CCC(=O)OCCCCOc3ccc(-c4cc(=S)ss4)cc3)C[C@H]2[C@H](OC(=O)CCC(=O)OCCCCOc2ccc(-c3cc(=S)ss3)cc2)/C=C/C(=O)O1
Completion: > 40 µM
